This collection of values is drawn from patent US11905286B2.

Kindly supply the reported IC50 values for the records listed here.
Counter-ions that a name gives are not always drawn.

[Q] // map O=C1N2C[C@@H](CC[C@H]2CCl)N1OS(=O)(=O)[O-].[Na+] [Example 6, sulphate] to recorded IC50 (system: OXA-48 (Klebsiella pneumoniae, UniProt Q6XEC0))
Sequence (Q6XEC0 23-265 limits assumed): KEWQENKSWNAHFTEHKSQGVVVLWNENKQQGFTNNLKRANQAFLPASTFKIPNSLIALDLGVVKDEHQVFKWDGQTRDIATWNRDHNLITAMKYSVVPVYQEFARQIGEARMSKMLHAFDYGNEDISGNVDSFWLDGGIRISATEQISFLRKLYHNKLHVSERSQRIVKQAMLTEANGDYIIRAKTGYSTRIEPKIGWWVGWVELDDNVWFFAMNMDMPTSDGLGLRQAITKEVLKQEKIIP
[A] 200 to 300 nM

[Q] API: value(readout=IC50, system=OXA-48 (Klebsiella pneumoniae, UniProt Q6XEC0)) for record O=C1N2C[C@@H](CC[C@H]2F)N1OS(=O)(=O)[O-].[Na+] [Example 10, sulfate]
[A] 200 to 300 nM

[Q] So what IC50 did O=C1N2C[C@@H](CC[C@H]2SC(F)(F)F)N1OS(=O)(=O)[O-].[Na+] [Example 7, sulphate] get with OXA-48 (Klebsiella pneumoniae, UniProt Q6XEC0)?
[A] 200 to 300 nM

[Q] Form field - read-out: IC50; system: OXA-48 (Klebsiella pneumoniae, UniProt Q6XEC0); submitted item: O=C1N2C[C@@H](CC[C@H]2Cl)N1OS(=O)(=O)[O-].[Na+] [Example 12, sulfate]
[A] > 300 nM

[Q] Write down the reported IC50 of O=C1N2C[C@@H](CC[C@H]2C(Cl)Cl)N1OS(=O)(=O)O [Example 3, sulfate] , test system: OXA-48 (Klebsiella pneumoniae, UniProt Q6XEC0).
[A] 100 to 200 nM

[Q] Find the measured IC50: item O=C1N2C[C@@H](CC[C@H]2CF)N1OS(=O)(=O)[O-].[Na+] [Example 4, sulphate] , target or system OXA-48 (Klebsiella pneumoniae, UniProt Q6XEC0).
[A] 200 to 300 nM

[Q] Request - read-out IC50 | tested on OXA-48 (Klebsiella pneumoniae, UniProt Q6XEC0) | compound CC(F)(F)[C@@H]1CC[C@@H]2CN1C(=O)N2OS(=O)(=O)[O-].[Na+] [Example 5, sulphate]
[A] 20 to 100 nM

[Q] What is its IC50 for OXA-48 (Klebsiella pneumoniae, UniProt Q6XEC0)? Entry: O=C1N2C[C@@H](CC[C@H]2C(F)(F)F)N1OS(=O)(=O)O [Example 1, sulfate]
[A] < 20 nM

[Q] # value lookup — system OXA-48 (Klebsiella pneumoniae, UniProt Q6XEC0), readout IC50, item O=C1N2C[C@@H](CC[C@@H]2F)N1OS(=O)(=O)[O-].[Na+] [Example 11, sulfate]
[A] > 300 nM

[Q] Request: IC50, test system OXA-48 (Klebsiella pneumoniae, UniProt Q6XEC0), entry O=C1N2C[C@@H](CC[C@H]2C(F)(F)c2nccs2)N1OS(=O)(=O)[O-].[Na+] [Example 9, sulphate]
[A] 200 to 300 nM

[Q] So what IC50 did O=C1N2C[C@@H](CC[C@H]2C(F)F)N1OS(=O)(=O)O [Example 2, sulfate] get with OXA-48 (Klebsiella pneumoniae, UniProt Q6XEC0)?
[A] 20 to 100 nM

[Q] IC50 of O=C1N2C[C@@H](CC[C@H]2COC(F)(F)F)N1OS(=O)(=O)[O-].[Na+] [Example 8, sulphate] on OXA-48 (Klebsiella pneumoniae, UniProt Q6XEC0)?
[A] 200 to 300 nM
